These data points were gathered from patent US11787830B2.

PROCEDURE SUMMARY: physchem
STATED CONDITIONS: water

| COMPOUND | solubility |
| --- | --- |
| O=C([O-])c1ccc[n+]([C@@H]2O[C@H](COP(=O)(O)O)[C@@H](O)[C@H]2O)c1 [Compound 2, Nicotinic acid mononucleotide] | ~20 mg/mL |
